Quick list: solubility kinetic per entry.
# study conditions: buffer; pH 7.4; 200.0 µM
All answers are understood in µg/mL, so give the number only.

Check out these entries, answers already filled in.
- compound: "O=C(NCc1ccco1)c1ccc(-c2cccc(Cl)c2)o1"
  solubility kinetic (µg/mL): 1.3
- compound: "CC(C)Cc1nc2oc3c(NCC(C)O)ncnc3c2c2c1CCCC2 (configuration not stated)"
  solubility kinetic (µg/mL): 2.1
- compound: "COc1ccc(NC(=O)C2CC(=O)n3c(nc4ccccc43)N2)cc1 (configuration not stated)"
  solubility kinetic (µg/mL): 0.3
- compound: "COC(=O)c1ccc(/C=C/C(=O)OCC(=O)Nc2sccc2C(N)=O)cc1"
  solubility kinetic (µg/mL): 3.9
- compound: "Cc1nc(Nc2ccccc2F)c2oc3ccccc3c2n1"
  solubility kinetic (µg/mL): 0.3

As a next step, examine the compound that follows.
Quick note, solubility kinetic for CC12CCC(=O)N1C(C(=O)NCCc1ccccc1)CS2 (configuration not stated) landed at 37.6

###

# study conditions: buffer; pH 7.4; 200.0 µM
Quick list: solubility kinetic per entry.

Check out these entries, answers already filled in.
- compound: "COc1cc(C(F)(F)F)c(C(=O)N(C)Cc2cccc(Cl)c2)cn1"
  result: "43.6 µg/mL"
- compound: "Cc1onc(-c2ccccc2)c1C(=O)Nc1nncs1"
  result: "> 42.9 µg/mL"
- compound: "O=C(NC(=S)N1CCCCCC1)c1cccc([N+](=O)[O-])c1"
  result: "> 46.1 µg/mL"
- compound: "O=C(Cc1cccs1)NCc1cc(Cl)cc(Cl)c1"
  result: "34.3 µg/mL"
- compound: "O=C(NCC(c1cccs1)N1CCOCC1)c1cnc(Cl)c(Cl)c1 (stereo not given)"
  result: "> 57.9 µg/mL"

Quick note, solubility kinetic for `COc1c(O)cccc1/C=N/NC(=O)Cn1ccnc1C` landed at > 43.2 µg/mL

Quick note, solubility kinetic for COc1ccc(NC(=O)C2C(c3ccccc3)C2(Cl)Cl)cc1 (stereo not given) landed at < 0.7 µg/mL

Quick note, solubility kinetic for `COc1ccccc1C(=O)COC(=O)c1cnc(C)cn1` landed at > 42.9 µg/mL

Quick note, solubility kinetic for `Cc1noc(/C=C/c2ccccn2)c1[N+](=O)[O-]` landed at 19.3 µg/mL

Quick note, solubility kinetic for `Cc1cccc2c(CCN)c[nH]c12.Cl` landed at > 31.6 µg/mL

Quick note, solubility kinetic for `O=C(OCc1cncs1)c1ccccc1Cl` landed at > 38.1 µg/mL

Quick note, solubility kinetic for Cc1cnc(C(=O)OCC(=O)N2CC(C)CC(C)C2)cn1 (stereo not given) landed at 43.3 µg/mL

Quick note, solubility kinetic for `O=C(c1ccccc1)N(Cc1ccccc1)Cc1ccccc1` landed at 0.8 µg/mL

Quick note, solubility kinetic for `O=C(CCn1ccnc1)Nc1nc2ccccc2[nH]1` landed at > 38.3 µg/mL

Quick note, solubility kinetic for `O=C(NCCCCc1ccccc1)Nc1cccc(F)c1` landed at 8.2 µg/mL

Quick note, solubility kinetic for `O=C(Nc1ccc(S(=O)(=O)N2CCCC2)cc1)c1ccc([N+](=O)[O-])o1` landed at 6.8 µg/mL

Quick note, solubility kinetic for `Cc1cc(C)c2c(N)c(C(=O)c3ccccc3)sc2n1` landed at < 0.3 µg/mL

Quick note, solubility kinetic for C=CCC(C=C)[N+]1(CC(=O)OC)CCCCC1.[Br-] (stereo not given) landed at > 47.7 µg/mL

Quick note, solubility kinetic for `N#C/C(=C\c1ccccc1OCC(=O)O)c1nc2ccccc2[nH]1` landed at > 47.9 µg/mL

Quick note, solubility kinetic for `COc1ccc(N2CCCC2)c(NC(=O)COc2ccccc2Cl)c1` landed at 1 µg/mL

Quick note, solubility kinetic for `COc1ccc(NC(=S)NC(=O)Cc2ccccc2)cc1` landed at 19.2 µg/mL

These entries and their values trace back to PubChem BioAssay AID1996.
